Tested on: mouse Smad7 mRNA
Protocol notes: Murine Smad7 mRNA expression after subcutaneous administration in BALB/c mice (Example 10)
Format: in vivo
Applied conditions: 50 mg/kg subcutaneous once a week for 4 weeks, 24 hours after last dose, ileum
Strand notation (5' to 3'): a small letter for the sugar, then the base; units joined by * are phosphorothioate-linked, units joined directly phosphodiester-linked; [ ] holds rarer units or linkages, { } end groups; capitals alone tell only the bases. k = constrained ethyl (cEt); [5mC] = 5-methylcytosine; d = 2'-deoxy (DNA)
# Mouse Smad7 mRNA expression (% inhibition), Ileum per entry
Answer with a number only, understood to be in % inhibition.

Study these solved cases before continuing.
substance="ION 798781 (CGTAAGATTCACAGCA; 3-10-3 cEt gapmer, further chemistry not given here)" experimental_system="mouse Smad7 mRNA" measure_unit="% inhibition" experimental_result=22
substance="ION 790615: 3-10-3 (S)-cEt gapmer targeting human SMAD7; top lead compound (k[5mC]*k[5mC]*kA*dA*dT*dG*dA*dG*dA*dA*dT*dG*d[5mC]*kT*kT*k[5mC])" experimental_system="mouse Smad7 mRNA" measure_unit="% inhibition" experimental_result=41
substance="ION 736697: uniform deoxy phosphorothioate oligonucleotide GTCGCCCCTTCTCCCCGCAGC (SEQ ID NO: 2736), same sequence and chemistry as GED-0301 (Mongersen) (DNA, all phosphorothioate, methylation of C not given here) [reference compound]" experimental_system="mouse Smad7 mRNA" measure_unit="% inhibition" experimental_result=0

Field: next substance
For reference, reported Mouse Smad7 mRNA expression (% inhibition), Ileum for ION 830025 (antisense TTTGTAAATCGAAAGC; 3-10-3 cEt gapmer, phosphorothioate, further chemistry not given here) [sodium salt] stands at 14
